Values from PubChem BioAssay (NCI)

Test system: OVCAR-4 ovarian
method: NCI tumour cell line growth inhibition, 48 h; in the data active = GI50 below about 0.43 µM; inactive = the rest
Outcomes: active, inactive

- compound: "CC(C)CC1C(=O)N2CCC[C@H]2C2(O)O[C@](NC(=O)C3C=C4c5cccc6[nH]c(Br)c(c56)C[C@H]4N(C)C3)(C(C)C)C(=O)N12 (stereo not given in full)"
  assigned-category: "inactive"
- compound: "CCCCCCCCCCCCNC(=O)[C@H]1CSC(c2cc3ccccc3s2)N1 (stereo not given in full)"
  assigned-category: "inactive"
- compound: "COc1cc(-c2nc(NC(C)=O)sc2-c2ccnc(NCCNS(=O)(=O)c3ccccc3)n2)ccc1Cl"
  assigned-category: "inactive"
- compound: "CC(C)CCSC1=CC(=O)c2ccccc2C1=O"
  assigned-category: "inactive"
- compound: "C/C1=C/C(=O)O[C@@H]2C[C@@H](CC[C@H](C)/C=C\\C=C\\CC1)O[C@@](O)([C@@H]1CSC(=O)N1CO)C2"
  assigned-category: "active"
- compound: "O=C(N/N=C/c1ccccc1O)C(O)(c1ccccc1)c1ccccc1"
  assigned-category: "inactive"
- compound: "COc1cccc(Cn2c(-c3nonc3N)nc3ccccc32)c1"
  assigned-category: "inactive"
- compound: "O=C(CCCCCCCn1cc(-c2cccnc2)nn1)Nc1ccccc1-c1ccccc1"
  assigned-category: "inactive"
- compound: "Fc1ccc(-c2nn3c(CNc4ccccc4)nnc3s2)cc1"
  assigned-category: "inactive"
- compound: "O=Cc1ccc(-c2ccc(-c3nc4ccccc4[nH]3)cc2)s1"
  assigned-category: "inactive"

###

System: NCI/ADR-RES ovarian
method: NCI tumour cell line growth inhibition, 48 h; in the data active = GI50 below about 0.43 µM; inactive = the rest
Outcomes: active, inactive

- molecule: "Cc1ccc(S(=O)(=O)Oc2ccc([N+](=O)[O-])cc2[N+](=O)[O-])cc1"
  assigned-category: "inactive"
- molecule: "O=C1/C=C/[C@@H](O)[C@@H]2C[C@@H](O)C[C@H]2/C=C/CCC[C@H](CCc2ccc(C(F)(F)F)cc2)O1"
  assigned-category: "active"
- molecule: "CC(C)CC1C(=O)N2CCC[C@H]2C2(O)O[C@](NC(=O)C3C=C4c5cccc6[nH]c(Br)c(c56)C[C@H]4N(C)C3)(C(C)C)C(=O)N12 (some centres undefined)"
  assigned-category: "inactive"
- molecule: "COc1ccc(CCN2CCCN3C2=Nc2ccccc2S3(=O)=O)cc1"
  assigned-category: "active"
- molecule: "COC(=O)[C@@]1(Cc2ccccc2)[C@H]2c3cc(C(=O)N4CCCC4)n(Cc4ccc(OC)c(OC)c4)c3C[C@H]2CN1C(=O)c1ccccc1"
  assigned-category: "inactive"
- molecule: "O=C1/C(=C\\c2ccc(F)cc2)CN(C(=O)c2ccc([N+](=O)[O-])cc2)C/C1=C\\c1ccc(F)cc1"
  assigned-category: "inactive"
- molecule: "Nc1ccccc1SC(CC(=O)c1ccccc1)c1ccc([N+](=O)[O-])cc1 (centres undefined)"
  assigned-category: "inactive"
- molecule: "CCN1C(=O)N(CC)C2C1NN=c1s/c(=C\\c3ccccc3F)c(=O)n12 (centres undefined)"
  assigned-category: "active"
- molecule: "O=Cc1ccc(-c2ccc(-c3nc4ccccc4[nH]3)cc2)s1"
  assigned-category: "inactive"

###

Test system: A549 NSCLC
method: NCI tumour cell line growth inhibition, 48 h
Where a SMILES comes first, the peptide text is derived from it. Bridges are numbered along the chain shown (N, C = ends). [ ]: non-standard residue; d: D form. The star is where a group is joined. PhAc = O=C(Cc1ccccc1)*
measurement-kind: TGI

- compound: "CCCc1cc(=O)oc2c(C=O)c(O)cc(O)c12"
  measurement-kind: "TGI"
  data-value: "> 100 µM"
- compound: "COc1ccc(/C=N/n2c(=O)[nH]c3ccccc3c2=O)cc1"
  measurement-kind: "TGI"
  data-value: "> 100 µM"
- compound: "C[N+](C)(C)CC(=O)N/N=C(\\CCC(=O)NCCc1ccccc1)CC(=O)c1ccccc1"
  measurement-kind: "TGI"
  data-value: "> 100 µM"
- compound: "CCOC(CCCNCCCn1c2c(c3cc(OC)c(OC)cc3c1=O)C(=O)c1cc3c(cc1-2)OCO3)OCC"
  measurement-kind: "TGI"
  data-value: "11.8 µM"
- compound: "CN(C)CC1CCCC(CN2CCCCC2)C1=O (centres undefined)"
  measurement-kind: "TGI"
  data-value: "> 76.4 µM"
- compound: "CC(C)/C(Cl)=N/OC(=O)Nc1cccc(C(F)(F)F)c1"
  measurement-kind: "TGI"
  data-value: "39.1 µM"
- compound: "CC(=O)[O-].CC(=O)[O-].O=C(N/N=C/c1cc(Cl)cc(Cl)c1O)c1ccncc1.[Ni+2]"
  measurement-kind: "TGI"
  data-value: "> 100 µM"
- compound: "N#CC1(C#N)NC(c2cccnc2)C(C#N)(C#N)NC1c1cccnc1 (centres undefined)"
  measurement-kind: "TGI"
  data-value: "> 100 µM"
- compound: "COc1cccc(C(=O)Nc2c3ccccc3nc3ccccc23)c1OC"
  measurement-kind: "TGI"
  data-value: "> 100 µM"
- compound: "O=C1Nc2cc(Cl)ccc2N=CC1NC(=O)C(c1ccccc1)c1ccccc1Cl (centres undefined)"
  measurement-kind: "TGI"
  data-value: "> 100 µM"
- compound: "Cc1n[n+](CC(=O)c2ccccc2)c2sc(N)nn12"
  measurement-kind: "TGI"
  data-value: "> 100 µM"
- compound: "O=c1c(-c2c(-c3ccccc3)oc3ccc(Cl)cc3c2=O)c(-c2ccccc2)oc2ccc(Cl)cc12"
  measurement-kind: "TGI"
  data-value: "> 100 µM"
- compound: "O=C(Cc1ccccc1)N[C@@H]1COC(=O)[C@@H]2CCCN2C(=O)[C@@H]2CCCN2C1=O (PhAc-[dS]-Pro-Pro; ester 1-C)"
  measurement-kind: "TGI"
  data-value: "> 100 µM"
- compound: "O=C1OC(c2ccccc2)=N/C1=C\\c1ccc2ccccc2c1"
  measurement-kind: "TGI"
  data-value: "> 100 µM"
- compound: "O=C(CCCCCCCn1cc(-c2cccnc2)nn1)Nc1ccccc1-c1ccccc1"
  measurement-kind: "TGI"
  data-value: "> 100 µM"
- compound: "NC1OC(COC(=O)c2ccccc2)C(O)C(OC(=O)c2ccccc2)C1OC(=O)c1ccccc1 (centres undefined)"
  measurement-kind: "TGI"
  data-value: "48 µM"
- compound: "CCCOc1ccc(-c2nc(-c3ccc(N=Cc4ccc(N(CCOS(C)(=O)=O)CCOS(C)(=O)=O)cc4C)cc3)cs2)cc1"
  measurement-kind: "TGI"
  data-value: "34.2 µM"
- compound: "CCN(CC)c1ccc(C2CC(c3cc(OC)c(OC)c(OC)c3)=NN2)cc1 (centres undefined)"
  measurement-kind: "TGI"
  data-value: "> 32.2 µM"
- compound: "COc1c(C)c2c(c3c1c(=O)c1ccccc1n3C)C=CC(C)(C)O2"
  measurement-kind: "TGI"
  data-value: "26.7 µM"
- compound: "CC(C)OC(=O)Nc1cccc(Cl)c1"
  measurement-kind: "TGI"
  data-value: "> 100 µM"
- compound: "NC(=O)C1c2ccccc2C=Cc2ccccc21"
  measurement-kind: "TGI"
  data-value: "> 100 µM"
- compound: "O=c1oc2ccccc2n1P(=O)(n1c(=O)oc2ccccc21)n1c(=O)oc2ccccc21"
  measurement-kind: "TGI"
  data-value: "> 100 µM"
- compound: "CCOC(=O)[C@@H]1OC(c2ccccc2)O[C@H]1C(=O)OCC"
  measurement-kind: "TGI"
  data-value: "> 100 µM"
- compound: "CCOC(=O)/C(C=Nc1c(C)n(C)n(-c2ccccc2)c1=O)=C(/O)c1ccccc1"
  measurement-kind: "TGI"
  data-value: "> 100 µM"

###

Test system: CAKI-1 renal
method: NCI tumour cell line growth inhibition, 48 h

- compound: "NCCCCCCCCn1c2c(c3ccccc3c1=O)C(=O)c1ccccc1-2"
  TGI: "9.03 µM"
- compound: "COc1c2c3ccccc3nc-2n(C)c2ccccc12"
  TGI: "> 100 µM"
- compound: "c1ccc(N=c2snc3scc(-c4ccccc4)n23)cc1"
  TGI: "> 100 µM"
- compound: "CC1=C(C(=O)Nc2ccccc2C)C(c2ccc(C3C(C(=O)Nc4ccccc4C)=C(C)NC(C)=C3C(=O)Nc3ccccc3C)cc2)C(C(=O)Nc2ccccc2C)=C(C)N1"
  TGI: "22.7 µM"
- compound: "COc1ccc2c(c1)CCN=C2Cc1ccccc1CCCl"
  TGI: "63.2 µM"
- compound: "O=c1c(-c2c(-c3ccccc3)oc3ccc(Cl)cc3c2=O)c(-c2ccccc2)oc2ccc(Cl)cc12"
  TGI: "> 100 µM"
- compound: "CNC1C(O)C(NC)C2OC3(O)C(=O)CC(C)OC3OC2C1O (centres undefined)"
  TGI: "> 100 µM"
- compound: "Cc1[nH]n(C2=NCCN2)c(=O)c1C"
  TGI: "> 100 µM"
- compound: "O=C1/C=C/[C@@H](O)[C@@H]2C[C@@H](O)C[C@H]2/C=C/CCC[C@H](CCc2ccc(C(F)(F)F)cc2)O1"
  TGI: "> 100 µM"
- compound: "Cc1nc2ccccn2c1NC(=O)NNC(=S)Nc1ccc(Br)cc1"
  TGI: "> 100 µM"
- compound: "CC(C)CC1C(=O)N2CCC[C@H]2C2(O)O[C@](NC(=O)C3C=C4c5cccc6[nH]c(Br)c(c56)C[C@H]4N(C)C3)(C(C)C)C(=O)N12 (some centres undefined)"
  TGI: "> 100 µM"
- compound: "CCOC(=O)/C(C=Nc1c(C)n(C)n(-c2ccccc2)c1=O)=C(/O)c1ccccc1"
  TGI: "> 100 µM"
- compound: "CCCCCCCCCCCCCCCCOCC(CN(C)CCN(C)C)OCCCCCCCCCCCCCCCC (centres undefined)"
  TGI: "> 100 µM"
- compound: "O=C1Nc2cc(Cl)ccc2N=CC1NC(=O)C(c1ccccc1)c1ccccc1Cl (centres undefined)"
  TGI: "> 100 µM"
- compound: "C=C(C)[C@@H]1CC[C@]2(C(N)=O)CC[C@]3(C)[C@H](CC[C@@H]4[C@@]5(C)CC[C@H](O)C(C)(C)[C@@H]5CC[C@]43C)[C@@H]12"
  TGI: "4.98 µM"
- compound: "N#CC1(C#N)NC(c2cccnc2)C(C#N)(C#N)NC1c1cccnc1 (centres undefined)"
  TGI: "> 100 µM"
- compound: "Cc1ccc(S(=O)(=O)Oc2ccc([N+](=O)[O-])cc2[N+](=O)[O-])cc1"
  TGI: "4.27 µM"
- compound: "Cc1ccc2[nH]c3c(C)c4c(c(C)c3c2c1)CN(C)C=C4"
  TGI: "5.89 µM"
- compound: "COc1ccccc1/C=C/C(=O)c1c(O)cc2occc2c1OC"
  TGI: "> 100 µM"
